Value source: the supplement of paper PMC9112550

# Tested on: Escherichia coli TOP10;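 also: peptides expressed intracellularly from a pBAD plasmid library in pooled LB shake-flask culture, induced with 0.3% L-arabinose, DNA abundance read by NGS, three biological replicates, DESeq2 with apeglm shrinkage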
# TEST DESCRIPTION: shrunken log2 fold change of peptide-encoding DNA abundance (4.5 h post-induction vs induction); higher = less antimicrobial activity (less host growth inhibition)
# STUDY CONDITIONS: time post-induction: 4.5 h; library: site-saturation at positions 5, 18, 19, 20
Overview of recorded shrunken log2 fold change for various sequences
Just the number, please.

Study these solved cases before continuing.
RRIRVRPPRLPRPRPRPSVCPRP    0.0223
RRIRQRPPRLPRPRPRPIMKPRP    -0.0798
RRIRARPPRLPRPRPRPPSSPRP    0.342
RRIRSRPPRLPRPRPRPMWGPRP    -0.0451
RRIRCRPPRLPRPRPRPQTWPRP    0.295

Kindly consider the entry below.
GET /values?readout=shrunken log2 fold change&item= RRIRQRPPRLPRPRPRPSAGPRP
0.0717
